system: HIV-1^M184V; experiment: Anti-HIV-1 MTT assay in MT-4 cells; assay type: cell-based; settings: read-out: Anti-HIV-1 IC50 against HIV-1^M184V
outcome_measure: IC50 (µM)
One number for each entry, in µM.

Form field: reported IC50 of Cc1cn(C2CC(O)C(C#N)(CO)O2)c(=O)[nH]c1=O (stereo not shown)
0.0117

---

experiment: in vitro; assay type: cell-based, human; details: human
outcome_measure: log10 CC50 (log10 of the value in µM)
Plainly stated, the numbers are log10 of CC50 given in µM.

Look over these answered cases.
C#C[C@]1(CO)O[C@@H](n2cnc3c(N)nc(F)nc32)C[C@@H]1O [EFdA, 4′-ethynyl-2-fluoro-2′-deoxyadenosine]	1.28
Nc1nc(F)nc2c1ncn2[C@H]1C[C@H](O)[C@](CO)(CF)O1 [FMFdA]	0.82
N#C[C@]1(CO)O[C@@H](n2cnc3c(N)nc(N)nc32)C[C@@H]1O [CAdA, 4′-cyano-2-amino-2′-deoxyadenosine]	0.54
Nc1nc(N)c2ncn([C@H]3C[C@H](O)[C@](CO)(CF)O3)c2n1 [FMAdA]	1.35

Alright, here's another compound for you.
Please report the recorded log10 CC50 for CC[C@]1(CO)O[C@@H](n2cnc3c(O)nc(N)nc32)C[C@@H]1O [EtdG, 4′-ethyl-2′-deoxyguanosine] .
1.67
